assay: Pharmacokinetic testing in rats; assay type: in vivo, male SD rats; settings: male, SD, plasma; rat, PO 10 mg/kg; read-out: Bioavailability F%
measurementName: bioavailability (%)
Note: unit % is implicit; provide only the numeric part.

Q: Name the recorded bioavailability for CNC(=O)c1cnc(NC(=O)C2CC2)cc1Nc1cccc(-c2ccc(S(=O)(=O)C(C)C)cn2)c1OC [WX-020] .
A: 39

###

test: Pharmacokinetic testing in rats; type: in vivo, male SD rats; settings: male, SD, plasma; rat, IV 3 mg/kg; read-out: Area under the curve AUC0-last
measurementName: AUC(0-t)

Q: Query: AUC(0-t); subject: CNC(=O)c1cnc(NC(=O)C2CC2)cc1Nc1cccc(-c2ccc(S(=O)(=O)C(C)C)cn2)c1OC [WX-020]
A: 2.61 µM·h
